Origin of measurements: paper PMC3988174

Molecular target: atToc132 G-domain bait (Arabidopsis thaliana) (UniProt Q9SLF3)
Sequence (Q9SLF3 456-794): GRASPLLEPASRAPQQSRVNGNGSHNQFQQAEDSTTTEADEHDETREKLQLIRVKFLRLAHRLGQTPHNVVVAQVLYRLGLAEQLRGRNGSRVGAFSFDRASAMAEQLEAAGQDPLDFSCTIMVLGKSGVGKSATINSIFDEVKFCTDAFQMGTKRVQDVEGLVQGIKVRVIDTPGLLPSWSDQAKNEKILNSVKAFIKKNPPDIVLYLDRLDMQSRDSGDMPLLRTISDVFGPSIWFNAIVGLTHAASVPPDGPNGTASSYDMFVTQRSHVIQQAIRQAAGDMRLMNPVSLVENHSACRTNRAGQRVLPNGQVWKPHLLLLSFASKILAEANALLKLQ
Experiment: two-hybrid; pairwise split-ubiquitin yeast two-hybrid of isolated NubG-preys with Toc159G, Toc132G or Toc132AG bait in NMY51; growth on SD-LWHA (3-AT) and quantitative β-Gal assay, activity relative to a reference bait set to 100%
Property measured: % increase in strength of interaction (β-Gal) with 132G against 159G (%)
Express your answer in %, writing the number without its unit.

Request: Name the recorded % increase in strength of interaction (β-Gal) with 132G against 159G of the item Geranylgeranyl reductase (natural protein) MLFSGSAIPLSSFCSLPEKPHTLPMKLSPAAIRSSSSSAPGSLNFDLRTYWTTLITEINQKLDEAIPVKHPAGIYEAMRYSVLAQGAKRAPPVMCVAACELFGGDRLAAFPTACALEMVHAASLIHDDLPCMDDDPVRRGKPSNHTVYGSGMAILAGDALFPLAFQHIVSHTPPDLVPRATILRLITEIARTVGSTGMAAGQYVDLEGGPFPLSFVQEKKFGAMGECSAVCGGLLGGATEDELQSLRRYGRAVGMLYQVVDDITEDKKKSYDGGAEKGMMEMAEELKEKAKKELQVFDNKYGGGDTLVPLYTFVDYAAHRHFLLPL in your answer.
Result: 88
